Assay target: recombinant human protein tyrosine phosphate 1B (PTP1B, EC 3. 1. 3. 48) (Homo sapiens)
Assay comment: biochemical
Type: biochemical
Experimental readout: pIC50
Give bare numbers, as −log10 of the molar value.

Given `CC(C)=CCC/C(C)=C/Cc1c(O)cc2c(c1O)C(=O)C[C@@H](c1ccc(O)cc1)O2` , state its recorded pIC50.
5.72

====

Assay target: recombinant human protein tyrosine phosphate 1B (PTP1B, EC 3. 1. 3. 48) (Homo sapiens)
Assay comment: biochemical
Assay type: biochemical
Assay context: PTP1B, secondary plots
Short version: KIS (inhibitor binds with enzyme-substrate complex) at least 10 µM is 1, less is 0.

{"Compound": "COc1c(O)cc(C2CC(=O)c3c(cc(O)c(C/C=C(\\C)CCC=C(C)C)c3O)O2)cc1O (centres unmarked) [Compound 4]", "Group label": 1}
{"Compound": "COc1cc([C@@H]2CC(=O)c3c(cc(O)c(C/C=C(\\C)CCC=C(C)C)c3O)O2)cc(OC)c1O [Compound 5, 3′-O-Methyl-5′-O-methyldiplacone]", "Group label": 0}
{"Compound": "COc1c(O)cc([C@H]2Oc3cc(O)c(C/C=C(\\C)CCC=C(C)C)c(O)c3C(=O)[C@@H]2O)cc1O [Compound 8]", "Group label": 1}

# ---- query compound ----
Decide: KIS (inhibitor binds with enzyme-substrate complex) of COc1cc([C@@H]2CC(=O)c3c(cc(O)c(C/C=C(\C)CCC=C(C)C)c3O)O2)ccc1O [Compound 2, 3′-O-methyldiplacone] >= 10 µM?
0

====

Assay target: α-glucosidase (EC 3.2.1.20. from Baker's Yeast) (Saccharomyces cerevisiae, UniProt P53341)
Sequence (P53341 whole entry): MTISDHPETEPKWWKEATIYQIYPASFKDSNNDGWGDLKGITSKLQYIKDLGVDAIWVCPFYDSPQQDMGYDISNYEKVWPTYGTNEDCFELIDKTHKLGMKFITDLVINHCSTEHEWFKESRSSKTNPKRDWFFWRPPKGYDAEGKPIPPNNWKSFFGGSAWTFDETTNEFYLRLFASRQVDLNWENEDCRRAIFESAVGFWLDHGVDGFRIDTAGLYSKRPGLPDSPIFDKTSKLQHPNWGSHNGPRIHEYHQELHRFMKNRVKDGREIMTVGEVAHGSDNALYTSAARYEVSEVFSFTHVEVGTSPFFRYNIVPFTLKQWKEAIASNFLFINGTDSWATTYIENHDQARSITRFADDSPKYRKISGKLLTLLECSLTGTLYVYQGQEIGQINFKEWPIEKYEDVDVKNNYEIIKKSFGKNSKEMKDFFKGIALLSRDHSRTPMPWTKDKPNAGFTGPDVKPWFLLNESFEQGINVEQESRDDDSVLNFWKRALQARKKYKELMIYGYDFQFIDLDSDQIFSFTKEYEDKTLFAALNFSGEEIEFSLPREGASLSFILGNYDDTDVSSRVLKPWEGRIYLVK
Experimental readout: IC50

What measured IC50 is associated with [Na+].[Na+].[Na+].[O]=[V]([O-])([O-])[O-] [NaVO4, reference compound] on α-glucosidase (EC 3.2.1.20. from Baker's Yeast) (Saccharomyces cerevisiae, UniProt P53341)?
> 200 µM

====

Assay target: α-glucosidase (EC 3.2.1.20. from Baker's Yeast) (Saccharomyces cerevisiae, UniProt P53341)
Assay comment: α-Glucosidase enzymatic assay (pNPG hydrolysis) and kinetic analysis
Format: biochemical
Assay context: Lineweaver–Burk and Dixon plots
Experimental readout: α-Glucosidase type of inhibition

{"Compound": "COc1ccc([C@@H]2CC(=O)c3c(cc(O)c(C/C=C(\\C)CCC=C(C)C)c3O)O2)cc1O", "α-Glucosidase type of inhibition": "Noncompetitive"}
{"Compound": "COc1ccc([C@H]2Oc3cc(O)c(C/C=C(\\C)CCC=C(C)C)c(O)c3C(=O)[C@@H]2O)cc1O", "α-Glucosidase type of inhibition": "Noncompetitive"}
{"Compound": "COc1cc([C@@H]2CC(=O)c3c(cc(O)c(C/C=C(\\C)CCC=C(C)C)c3O)O2)cc(OC)c1O", "α-Glucosidase type of inhibition": "Noncompetitive"}
{"Compound": "CC(C)=CCC/C(C)=C/Cc1c(O)cc2c(c1O)C(=O)C[C@@H](c1ccc(O)cc1)O2", "α-Glucosidase type of inhibition": "Noncompetitive"}
{"Compound": "COc1c(O)cc(C2CC(=O)c3c(cc(O)c(C/C=C(\\C)CCC=C(C)C)c3O)O2)cc1O (centres unmarked)", "α-Glucosidase type of inhibition": "Noncompetitive"}

Respectfully, I request α-Glucosidase type of inhibition for each entry included below.
1. COc1cc([C@@H]2CC(=O)c3c(cc(O)c(C/C=C(\C)CCC=C(C)C)c3O)O2)ccc1O
2. COc1c(O)cc([C@H]2Oc3cc(O)c(C/C=C(\C)CCC=C(C)C)c(O)c3C(=O)[C@@H]2O)cc1O
3. COc1cc([C@H]2Oc3cc(O)c(C/C=C(\C)CCC=C(C)C)c(O)c3C(=O)[C@@H]2O)ccc1O

Noncompetitive
Noncompetitive
Noncompetitive

====

Assay target: recombinant human protein tyrosine phosphate 1B (PTP1B, EC 3. 1. 3. 48) (Homo sapiens, UniProt P18031)
Assay comment: biochemical
Assay type: biochemical
Assay context: from Dixon plots; read-out: PTP1B Ki (inhibition constant)
Experimental readout: Ki (µM)
Answers are plain numbers, in µM.

{"Molecule": "COc1cc([C@H]2Oc3cc(O)c(C/C=C(\\C)CCC=C(C)C)c(O)c3C(=O)[C@@H]2O)ccc1O", "Experimental readout": "Ki", "Unit abbrev": "µM", "Recorded measurement": 3.8}
{"Molecule": "COc1c(O)cc(C2CC(=O)c3c(cc(O)c(C/C=C(\\C)CCC=C(C)C)c3O)O2)cc1O (stereo not shown)", "Experimental readout": "Ki", "Unit abbrev": "µM", "Recorded measurement": 6.1}
{"Molecule": "COc1cc([C@@H]2CC(=O)c3c(cc(O)c(C/C=C(\\C)CCC=C(C)C)c3O)O2)ccc1O", "Experimental readout": "Ki", "Unit abbrev": "µM", "Recorded measurement": 3.2}
{"Molecule": "COc1c(O)cc([C@H]2Oc3cc(O)c(C/C=C(\\C)CCC=C(C)C)c(O)c3C(=O)[C@@H]2O)cc1O", "Experimental readout": "Ki", "Unit abbrev": "µM", "Recorded measurement": 6.2}
{"Molecule": "COc1cc([C@@H]2CC(=O)c3c(cc(O)c(C/C=C(\\C)CCC=C(C)C)c3O)O2)cc(OC)c1O", "Experimental readout": "Ki", "Unit abbrev": "µM", "Recorded measurement": 3.5}

Respectfully, I request Ki for each entry included below.
1. COc1ccc([C@H]2Oc3cc(O)c(C/C=C(\C)CCC=C(C)C)c(O)c3C(=O)[C@@H]2O)cc1O
2. COc1ccc([C@@H]2CC(=O)c3c(cc(O)c(C/C=C(\C)CCC=C(C)C)c3O)O2)cc1O

1: 7.9; 2: 8.1

====

Assay target: recombinant human protein tyrosine phosphate 1B (PTP1B, EC 3. 1. 3. 48) (Homo sapiens, UniProt P18031)
Assay comment: biochemical
Assay type: biochemical
Assay context: pNPP substrate, triplicate; read-out: PTP1B IC50
Experimental readout: IC50 (µM)
Numbers only, in µM.

Known results for compounds:
{"Compound": "COc1cc([C@H]2Oc3cc(O)c(C/C=C(\\C)CCC=C(C)C)c(O)c3C(=O)[C@@H]2O)ccc1O [Compound 6, 3′-O-methyldiplacol]", "Experimental readout": "IC50", "Recorded measurement": 4.9}
{"Compound": "COc1ccc([C@H]2Oc3cc(O)c(C/C=C(\\C)CCC=C(C)C)c(O)c3C(=O)[C@@H]2O)cc1O [Compound 7, 4′-O-methyldiplacol]", "Experimental readout": "IC50", "Recorded measurement": 8.2}
{"Compound": "COc1cc([C@@H]2CC(=O)c3c(cc(O)c(C/C=C(\\C)CCC=C(C)C)c3O)O2)ccc1O [Compound 2, 3′-O-methyldiplacone]", "Experimental readout": "IC50", "Recorded measurement": 3.9}
{"Compound": "COc1c(O)cc(C2CC(=O)c3c(cc(O)c(C/C=C(\\C)CCC=C(C)C)c3O)O2)cc1O (stereo not shown) [Compound 4]", "Experimental readout": "IC50", "Recorded measurement": 5.9}
{"Compound": "COc1cc([C@@H]2CC(=O)c3c(cc(O)c(C/C=C(\\C)CCC=C(C)C)c3O)O2)cc(OC)c1O [Compound 5, 3′-O-Methyl-5′-O-methyldiplacone]", "Experimental readout": "IC50", "Recorded measurement": 3.8}

Respectfully, I request IC50 for each entry included below.
1. COc1c(O)cc([C@H]2Oc3cc(O)c(C/C=C(\C)CCC=C(C)C)c(O)c3C(=O)[C@@H]2O)cc1O [Compound 8]
2. COc1ccc([C@@H]2CC(=O)c3c(cc(O)c(C/C=C(\C)CCC=C(C)C)c3O)O2)cc1O [Compound 3, 4′-O-methyldiplacone]

6.6
7.8

====

Assay target: recombinant human protein tyrosine phosphate 1B (PTP1B, EC 3. 1. 3. 48) (Homo sapiens, UniProt P18031)
Sequence (P18031 1-435): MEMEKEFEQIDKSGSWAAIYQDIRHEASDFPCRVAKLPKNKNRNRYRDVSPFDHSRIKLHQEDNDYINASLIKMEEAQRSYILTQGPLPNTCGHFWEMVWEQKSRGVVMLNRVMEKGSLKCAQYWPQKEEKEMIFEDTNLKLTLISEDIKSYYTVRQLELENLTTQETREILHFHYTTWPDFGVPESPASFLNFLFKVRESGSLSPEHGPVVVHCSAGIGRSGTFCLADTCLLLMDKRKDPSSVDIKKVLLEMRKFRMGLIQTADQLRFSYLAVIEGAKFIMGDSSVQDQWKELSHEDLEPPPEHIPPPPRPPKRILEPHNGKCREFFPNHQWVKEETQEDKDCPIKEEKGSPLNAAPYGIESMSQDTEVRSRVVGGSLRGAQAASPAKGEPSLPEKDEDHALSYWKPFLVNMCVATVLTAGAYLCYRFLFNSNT
Assay comment: biochemical
Assay type: biochemical
Assay context: PTP1B, secondary plots; read-out: KI (inhibitor binds with free enzyme)
Procedure: The PTP1B inhibitory assay was carried out using a slight modification to literature reported method. p-nitrophenyl phosphate (pNPP) was used as a substrate for the measurement of enzyme activity. Buffer solution consisted of 25 mM Tris–HCl (pH 7.5), 2 mM β-mercaptoethanol, 1 mM (ethylenediaminetetraacetic acid) EDTA, and 1 mM dithiothreitol (DTT). […]
Please provide measured Ki for the entries that follow.
Answers are plain numbers, in µM.

Known results for molecules:
{"Molecule": "COc1ccc([C@H]2Oc3cc(O)c(C/C=C(\\C)CCC=C(C)C)c(O)c3C(=O)[C@@H]2O)cc1O [Compound 7, 4′-O-methyldiplacol]", "Unit abbrev": "µM", "Ki": 6.9}
{"Molecule": "COc1cc([C@H]2Oc3cc(O)c(C/C=C(\\C)CCC=C(C)C)c(O)c3C(=O)[C@@H]2O)ccc1O [Compound 6, 3′-O-methyldiplacol]", "Unit abbrev": "µM", "Ki": 3.5}

Shifting focus to the molecule that follows.
Given COc1cc([C@@H]2CC(=O)c3c(cc(O)c(C/C=C(\C)CCC=C(C)C)c3O)O2)cc(OC)c1O [Compound 5, 3′-O-Methyl-5′-O-methyldiplacone] , state its recorded Ki.
2.8
